tested on: Staphylococcus aureus; experiment: Antibacterial activity against methicillin resistant Staphylococcus aureus 5076 harbouring DNA gyrase and topoisomerase IV mutant and efflux pump assessed as inhibition of bacterial growth incubated for 18 hrs in presence of efflux inhibitor by CLSI based serial agar dilution method; format: functional
MIC reference
Unit µg/mL implied. Number only.

Take a look at these entries with their results.
- Cc1c(N2CCC(N)C(C)(C)C2)c(F)cc2c(=O)c(C(=O)O)cn(C3CC3)c12 (single isomer, unassigned; (-)): 0.8
- COc1c(N2CCC(N)C(C)(C)C2)c(F)cc2c(=O)c(C(=O)O)cn(C3CC3)c12 (stereo in doubt; form 1): 1.56
- COc1c(N2CC[C@H](N)C(C)(C)C2)c(F)cc2c(=O)c(C(=O)O)cn(C3CC3)c12: 1.56
- Cc1c(N2CCC(O)C(C)(C)C2)c(F)cc2c(=O)c(C(=O)O)cn(C3CC3)c12 (single isomer, unassigned; (+)): 0.2

Next up:
MIC of COc1c(N2CC[C@@H](N)C(C)(C)C2)c(F)cc2c(=O)c(C(=O)O)cn(C3CC3)c12 , assay on Staphylococcus aureus, is 1.56
